target: CD137 on Jurkat reporter cells (Promega kit CS196005) (UniProt Q07011); assay: cell-based or functional assay
Sequence (Q07011 24-255 limits assumed): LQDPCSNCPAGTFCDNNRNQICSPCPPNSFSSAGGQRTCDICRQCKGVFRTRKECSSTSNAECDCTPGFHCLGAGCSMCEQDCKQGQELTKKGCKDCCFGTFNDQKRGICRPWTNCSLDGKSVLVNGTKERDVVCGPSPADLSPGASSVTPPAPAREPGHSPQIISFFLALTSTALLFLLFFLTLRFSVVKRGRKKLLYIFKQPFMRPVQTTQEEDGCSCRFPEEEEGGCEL
Starred links: 1 amine or outer side, 2 acyl side, 3 side chain; linkers in the order of their positions; H or OH if unused. Positions of bridges follow the written chain, without caps; N, C: chain ends. Non-standard residues stand in square brackets, D forms with d. Chains are numbered I, II in the order given. No end group written: not given here. *: point of attachment. TATA = O=C(CC[*:1])N1CN(C(=O)CC[*:2])CN(C(=O)CC[*:3])C1; Hyp = O=C(O)[C@@H]1C[C@@H](O)CN1; hArg = N=C(N)NCCCC[C@H](N)C(=O)O; tBuAla = CC(C)(C)C[C@H](N)C(=O)O; Cba = N[C@@H](CC1CCC1)C(=O)O; NMeA = CN[C@@H](C)C(=O)O; Nle = CCCC[C@H](N)C(=O)O; Pent4ynoyl = C#CCCC(=O)*
measurement-name: EC50 (nM), PC3 co-culture
// units = nM; emit number, no label

• BCY13051 (linker I:4-I:11-I:18, II:1-II:8-II:15 via TATA; not fully specified (N-terminus, bridges); also: linker joins chain 1 to two chain 2 copies via PYA triazoles) peptide 1: A[hArg]DC[Hyp][Cba]VNPLCLEP[dD]WTC peptide 2: Ac-C[tBuAla]PE[dK](Pent4ynoyl)PYCFADPY[Nle]CA = 0.21

Please find the next binder below.
Q. Query: EC50 (nM), PC3 co-culture; subject: BCY13276 (linker I:4-I:11-I:18, II:1-II:8-II:15 via TATA; not fully specified (N-terminus, bridges); also: linker joins chain 1 to two chain 2 copies via PYA triazoles) peptide 1: [NMeA][hArg]DC[Hyp]LVNPLCLEP[dD]WTC peptide 2: Ac-C[tBuAla]PE[dK](Pent4ynoyl)PYCFADPY[Nle]CA
A. 0.1

Origin of values: patent US20230129258A1
